Biological target: GABA-A alpha1 receptor (alpha 1 subunit together with a beta and a gamma subunit) (Homo sapiens, UniProt P14867+P18507)
Construct: expressed in transfected cells
Assay: GABA-A receptor modulation, voltage-sensitive dye fluorescence in transfected eukaryotic cell line (alpha1)
Format: cell-based
Details: compounds at 3 μM; sub-maximal concentration of GABA (EC20); read-out: alpha1 % mod (percentage of increase of the fluorescent signal compared to signal without the agent)
Observable: activation at 3 µM (%)
Give bare numbers, in %.

Past entries and their recorded results:
Fc1cccc2c1ncc1c(OCc3ccc(Cl)cc3)n(-c3ccccc3)nc12
39
CCCCOc1c2cnc3ccccc3c2nn1-c1ccccc1
137
N#Cc1ccc2ncc3c(OCc4ccc(Cl)cc4)n(-c4ccccc4)nc3c2c1
34
COc1ccc(-n2nc3c(cnc4ccccc43)c2OCc2ccc(C(F)(F)F)cc2)cc1
5

# map each compound to its activation at 3 µM
1. COc1ccc(-n2nc3c(cnc4c(F)c(F)c(F)cc43)c2SCc2ccccc2)cc1
2. Cc1cccc2c1ncc1c(OCc3ccc(Cl)cc3)n(-c3ccccc3)nc12
3. Clc1ccc(-n2nc3c(cnc4ccccc43)c2OCCN2CCOCC2)cc1
4. Clc1ccc(-n2nc3c(cnc4ccc(Br)cc43)c2OCc2ccccc2Cl)cc1

188
51
17
26

* * *

Biological target: GABA-A alpha1 receptor (alpha 1 subunit together with a beta and a gamma subunit) (Homo sapiens, UniProt P14867+P18507)
Construct: expressed in transfected cells
Assay: GABA-A receptor modulation, voltage-sensitive dye fluorescence in transfected eukaryotic cell line (alpha1)
Assay type: cell-based
Conditions: compounds at 3 μM; sub-maximal concentration of GABA (EC20); read-out: alpha1 % mod (percentage of increase of the fluorescent signal compared to signal without the agent)
Answer condition not met if activation at 3 µM is under 50%, and condition met if it is 50% or more.

hey, is activation at 3 µM for this one >= 50%? Clc1ccc(-n2nc3c(cnc4ccccc43)c2OCC2CCCC2)cc1
condition met

// inclusive: activation at 3 µM at least 50%? input: COc1ccc(-n2nc3c(cnc4ccccc43)c2OCc2ccccc2Cl)cc1
condition met

Hi, just wondering whether COc1ccc(-n2nc3c(cnc4ccccc43)c2OCCc2ccc(Cl)cc2)cc1 shows activation at 3 µM of 50% or higher.
condition not met

* * *

Biological target: GABA-A alpha1 receptor (alpha 1 subunit together with a beta and a gamma subunit) (Homo sapiens, UniProt P14867+P18507)
Construct: expressed in transfected cells
Sequence (P14867 28-456): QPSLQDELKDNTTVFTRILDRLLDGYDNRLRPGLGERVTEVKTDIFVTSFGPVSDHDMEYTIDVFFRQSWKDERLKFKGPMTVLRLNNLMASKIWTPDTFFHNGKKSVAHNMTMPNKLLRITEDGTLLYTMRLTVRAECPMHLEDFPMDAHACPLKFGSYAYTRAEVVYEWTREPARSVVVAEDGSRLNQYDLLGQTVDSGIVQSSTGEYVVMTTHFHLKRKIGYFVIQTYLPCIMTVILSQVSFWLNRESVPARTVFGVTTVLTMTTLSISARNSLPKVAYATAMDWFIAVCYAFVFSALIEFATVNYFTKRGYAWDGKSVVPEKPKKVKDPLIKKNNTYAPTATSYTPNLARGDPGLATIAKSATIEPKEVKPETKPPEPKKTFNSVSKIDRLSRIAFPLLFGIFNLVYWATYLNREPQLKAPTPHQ
Sequence (P47870 25-512 partner limits assumed): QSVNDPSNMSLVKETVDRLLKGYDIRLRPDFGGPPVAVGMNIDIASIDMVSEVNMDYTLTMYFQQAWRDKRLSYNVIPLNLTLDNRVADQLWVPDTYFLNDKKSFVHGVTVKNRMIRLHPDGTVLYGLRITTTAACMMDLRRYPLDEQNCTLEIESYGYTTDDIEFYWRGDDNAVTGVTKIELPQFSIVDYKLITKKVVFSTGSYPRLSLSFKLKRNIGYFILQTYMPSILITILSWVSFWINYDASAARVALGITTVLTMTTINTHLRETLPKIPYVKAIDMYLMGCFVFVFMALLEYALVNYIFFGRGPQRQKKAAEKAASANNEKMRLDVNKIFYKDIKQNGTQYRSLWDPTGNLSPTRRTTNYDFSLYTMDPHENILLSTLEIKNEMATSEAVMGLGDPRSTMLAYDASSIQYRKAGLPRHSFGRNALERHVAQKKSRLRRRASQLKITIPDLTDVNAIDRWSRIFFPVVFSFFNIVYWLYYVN
Sequence (P18507 40-467 limits assumed): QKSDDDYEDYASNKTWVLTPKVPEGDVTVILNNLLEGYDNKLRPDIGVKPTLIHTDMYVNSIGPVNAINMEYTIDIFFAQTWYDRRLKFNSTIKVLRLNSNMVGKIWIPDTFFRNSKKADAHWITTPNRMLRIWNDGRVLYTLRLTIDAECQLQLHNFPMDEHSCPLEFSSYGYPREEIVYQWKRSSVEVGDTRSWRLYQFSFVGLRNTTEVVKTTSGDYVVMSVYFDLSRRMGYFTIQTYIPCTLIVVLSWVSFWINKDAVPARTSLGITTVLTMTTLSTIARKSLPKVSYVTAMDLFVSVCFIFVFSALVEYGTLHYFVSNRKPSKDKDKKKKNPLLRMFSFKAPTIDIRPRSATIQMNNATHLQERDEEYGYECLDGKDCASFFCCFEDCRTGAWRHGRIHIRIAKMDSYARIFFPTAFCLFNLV
Assay: GABA-A receptor modulation, voltage-sensitive dye fluorescence in transfected eukaryotic cell line (alpha1)
Format: cell-based
Settings: compounds at 3 μM; sub-maximal concentration of GABA (EC20); read-out: alpha1 % mod (percentage of increase of the fluorescent signal compared to signal without the agent)
Observable: activation at 3 µM
Remember to quote the unit after the number.

Solved cases (5 shown):
Clc1ccc(-n2nc3c(cnc4ccc(-n5ccnc5)cc43)c2OCC2CCCC2)cc1
63%
Fc1ccccc1COc1c2cnc3ccccc3c2nn1-c1ccccc1
62%
Cc1ccccc1-n1nc2c(cnc3ccccc32)c1OCc1ccccc1Br
223%
Fc1ccccc1-n1nc2c(cnc3ccccc32)c1OCCc1ccccc1Cl
18%
Fc1ccc(-n2nc3c(cnc4ccccc43)c2OCc2ccccc2F)cc1
34%

For each of the items listed, what is its activation at 3 µM?
1. COc1ccc(-n2nc3c(cnc4ccccc43)c2OCCOc2ccccc2)cc1
2. Clc1ccc(-n2nc3c(cnc4ccccc43)c2OCC2CC2)cc1
3. COc1ccc(-n2nc3c(cnc4ccccc43)c2OCCc2ccccc2Cl)cc1
4. Clc1ccccc1-n1nc2c(cnc3ccccc32)c1OCc1ccccc1Br

1: -29%; 2: 60%; 3: 23%; 4: 289%

List activation at 3 µM for every entry below, keeping the order given.
1. Fc1ccc(-n2nc3c(cnc4ccccc43)c2OCc2ccccc2Cl)cc1
2. Clc1ccc(-n2nc3c(cnc4ccc(-n5ccnc5)cc43)c2OCCc2ccccc2Cl)cc1
3. Fc1ccc(-n2nc3c(cnc4ccccc43)c2OCc2ccccc2C(F)(F)F)cc1

["9%", "108%", "47%"]

Provide activation at 3 µM for all items below, preserving their order.
1. COc1ccc(-n2nc3c(cnc4ccccc43)c2OCCN2CCOCC2)cc1
2. Clc1ccc(-n2nc3c(cnc4ccccc43)c2OCC2CCO2)cc1 (stereo not drawn)
3. Fc1ccccc1-n1nc2c(cnc3ccccc32)c1OCCN1CCOCC1
4. COc1ccc(-n2nc3c(cnc4ccccc43)c2OCc2ccncc2)cc1
5. COc1ccc(-n2nc3c(cnc4ccccc43)c2OCCCN2CCN(C)C2=O)cc1
6. Clc1ccc(-n2nc3c(cnc4ccccc43)c2OC2CCCC2)cc1

1. 67%
2. 53%
3. 0%
4. 64%
5. 262%
6. 27%

Report activation at 3 µM for every entry below.
1. COc1ccc(-n2nc3c(cnc4ccccc43)c2OCc2ccc(Cl)cc2)cc1
2. CC(C)(C)n1nc2c(cnc3ccccc32)c1OCc1ccccc1Br
3. Clc1ccc(-n2nc3c(cnc4ccc(-n5ccnc5)cc43)c2OCC2CC2)cc1

23%
109%
119%

Where these numbers come from: patent US20110294799A1
